Overview of reported EC50 across a group of compounds:
- TARGET: UniProtKB P35414
- RUN_DESCRIPTION: cell-based cAMP TR-FRET assay of apelin receptor activation
- RUN_PARAMETERS: CHO cells expressing human APJ, forskolin-stimulated cAMP, 0.5 h incubation, 50% of control (apelin-13, 1 nM) response; read-out: Potency Category (EC50)

Could you tell me which EC50 is on file for CCS(=O)(=O)c1ccc(C(Oc2ccc(OC)cc2)C(=O)Nc2nc3ccc(OC)cc3s2)cc1 (stereo not drawn) ? > 500 nM

Could you tell me which EC50 is on file for COc1cc2nc(NC(=O)C(Oc3ccc(C#N)cc3)c3ccc(OCCN4CCOCC4)cc3)sc2cc1OC (stereo not drawn) ? 200 to 500 nM

Could you tell me which EC50 is on file for CCS(=O)(=O)c1ccc(C(OCCc2ccccc2)C(=O)Nc2nc3cc(OC)c(OC)cc3s2)cc1 (stereo not drawn) ? > 500 nM

Could you tell me which EC50 is on file for CCS(=O)(=O)c1ccc(C(Oc2ccc(OC)cc2)C(=O)Nc2nc3cc(OC)c(OC)cc3s2)cc1 (stereo not drawn) ? > 500 nM

Could you tell me which EC50 is on file for CCS(=O)(=O)c1ccc(C(Oc2ccc(C#N)cc2)C(=O)Nc2nc3ccc4c(c3s2)OCCO4)cc1 (stereo not drawn) ? 50 to 100 nM

Could you tell me which EC50 is on file for CCS(=O)(=O)c1ccc(C(Oc2ccc(C#N)cc2)C(=O)Nc2nc3cc(OC)c(OC)cc3s2)cc1 (stereo not drawn) ? < 50 nM

Could you tell me which EC50 is on file for CCS(=O)(=O)c1cccc(C(Oc2ccc(C#N)cc2)C(=O)Nc2nc3cc(OC)c(OC)cc3s2)c1 (stereo not drawn) ? 200 to 500 nM

Could you tell me which EC50 is on file for COc1cc2nc(NC(=O)C(Oc3ccc(C#N)cc3)c3ccc(C#N)cc3)sc2cc1OC (stereo not drawn) ? < 50 nM

Could you tell me which EC50 is on file for COc1cc2nc(NC(=O)C(Oc3ccc(-c4nnn[nH]4)cc3)c3ccc(C#N)cc3)sc2cc1OC (stereo not drawn) ? > 500 nM

----------
- TARGET: human apelin receptor (APJ, AGTRL-one, APLNR) (Homo sapiens, UniProt P35414)
- Sequence (P35414 whole entry): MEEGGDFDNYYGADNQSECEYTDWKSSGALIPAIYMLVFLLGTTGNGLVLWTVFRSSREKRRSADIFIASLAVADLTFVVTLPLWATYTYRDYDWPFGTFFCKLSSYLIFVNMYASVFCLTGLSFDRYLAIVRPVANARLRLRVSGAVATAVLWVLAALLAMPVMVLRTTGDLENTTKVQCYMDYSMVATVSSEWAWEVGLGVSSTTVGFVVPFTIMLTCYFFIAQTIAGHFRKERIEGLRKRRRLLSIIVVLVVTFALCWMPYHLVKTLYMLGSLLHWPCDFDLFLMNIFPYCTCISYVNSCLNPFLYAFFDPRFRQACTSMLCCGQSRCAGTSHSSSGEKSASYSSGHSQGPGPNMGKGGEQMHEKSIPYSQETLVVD
- RUN_DESCRIPTION: cell-based cAMP TR-FRET assay of apelin receptor activation
- RUN_PARAMETERS: CHO cells expressing human APJ, forskolin-stimulated cAMP, 0.5 h incubation, 50% of control (apelin-13, 1 nM) response; read-out: Potency Category (EC50)
PARAMETER: EC50

Reference set, count: 5
{"columns": ["COMPOUND", "EC50"],
 "data": [
  ["CCS(=O)(=O)c1ccc(C(Oc2ccc(C#N)cc2)C(=O)Nc2nc3cc(OCCO)c(OC)cc3s2)cc1 (centres unmarked)", "200 to 500 nM"],
  ["CCS(=O)(=O)c1ccc(C(Oc2cccc(OC)c2)C(=O)Nc2nc3cc(OC)c(OC)cc3s2)cc1 (centres unmarked)", "> 500 nM"],
  ["COc1cc2nc(NC(=O)C(Oc3ccc(C#N)cc3)c3ccc(F)cc3)sc2cc1OC (centres unmarked)", "200 to 500 nM"],
  ["CCS(=O)(=O)c1ccc(C(Oc2cccc(C#N)c2)C(=O)Nc2nc3cc(OC)c(OC)cc3s2)cc1 (centres unmarked)", "> 500 nM"],
  ["CCS(=O)(=O)c1ccc(C(Oc2ccc(C#N)cc2)C(=O)Nc2nc3ccc(C)c(OC)c3s2)cc1 (centres unmarked)", "50 to 100 nM"]
]}

Could you tell me which EC50 is on file for CCS(=O)(=O)c1ccc(C(Oc2ccc(C(=O)O)cc2)C(=O)Nc2nc3cc(OC)c(OC)cc3s2)cc1 (centres unmarked) ? > 500 nM

Could you tell me which EC50 is on file for CCS(=O)(=O)c1ccc(C(C(=O)Nc2nc3cc(OC)c(OC)cc3s2)N2CCOCC2)cc1 (centres unmarked) ? > 500 nM

Could you tell me which EC50 is on file for CCS(=O)(=O)c1ccc(C(OC(C)C)C(=O)Nc2nc3cc(OC)c(OC)cc3s2)cc1 (centres unmarked) ? > 500 nM

Could you tell me which EC50 is on file for COc1cc2nc(NC(=O)C(Oc3ccc(C#N)cc3)c3ccc(C(=O)NCCN(C)C)cc3)sc2cc1OC (centres unmarked) ? 50 to 100 nM

Could you tell me which EC50 is on file for CCS(=O)(=O)c1ccc(C(OCc2ccc(C#N)cc2)C(=O)Nc2nc3cc(OC)c(OC)cc3s2)cc1 (centres unmarked) ? > 500 nM

Could you tell me which EC50 is on file for CCCOC(C(=O)Nc1nc2cc(OC)c(OC)cc2s1)c1ccc(S(=O)(=O)CC)cc1 (centres unmarked) ? > 500 nM

----------
Overview of reported pEC50 across a group of compounds:
- TARGET: human apelin receptor (APJ, AGTRL-one, APLNR) (Homo sapiens)
- RUN_DESCRIPTION: cell-based cAMP TR-FRET assay of apelin receptor activation
- RUN_PARAMETERS: CHO cells expressing human APJ, forskolin-stimulated cAMP, 0.5 h incubation, 50% of control (apelin-13, 1 nM) response; read-out: Potency Category (EC50)
pEC50: −log10 of the molar value.

Could you tell me which pEC50 is on file for CCS(=O)(=O)c1ccc(C(Oc2cccc(Cl)c2)C(=O)Nc2nc3cc(OC)c(OC)cc3s2)cc1 (centres unmarked) ? < 6.30

Could you tell me which pEC50 is on file for CCS(=O)(=O)c1ccc(C(Oc2cccc3ccccc23)C(=O)Nc2nc3cc(OC)c(OC)cc3s2)cc1 (centres unmarked) ? < 6.30

Could you tell me which pEC50 is on file for CCS(=O)(=O)c1ccc(C(Oc2ccc(C#N)cc2)C(=O)Nc2nc3c(OC)ccc(OC)c3s2)cc1 (centres unmarked) ? 7.00 to 7.30

Could you tell me which pEC50 is on file for COc1cc2nc(NC(=O)C(Oc3ccc(C#N)cc3)c3ccc(C(=O)N(C)C)cc3)oc2cc1OC (centres unmarked) ? > 7.30

Could you tell me which pEC50 is on file for CCS(=O)(=O)c1ccc(C(OCC2CCCCC2)C(=O)Nc2nc3cc(OC)c(OC)cc3s2)cc1 (centres unmarked) ? < 6.30

----------
Overview of reported EC50 across a group of compounds:
- TARGET: UniProtKB P35414
- RUN_DESCRIPTION: cell-based cAMP TR-FRET assay of apelin receptor activation
- RUN_PARAMETERS: CHO cells expressing human APJ, forskolin-stimulated cAMP, 0.5 h incubation, 50% of control (apelin-13, 1 nM) response; read-out: Potency Category (EC50)
- Protocol: The assays disclosed herein were performed using cell lines from DiscoveX, Inc. Biological activity was determined to the cell—based assay. This assay detects activation of the receptor by reporting on intracellular cyclic adenosine monophosphate (cAMP) level. […] At the end of the incubation, cells were lysed to stop APJ signaling and cAMP was quantified using a commercially available competitive immunoassay kit that applies homogenous time—resolved florescence energy transfer (TR—FRET). […]

Reference set, count: 2
{"columns": ["COMPOUND", "EC50"],
 "data": [
  ["CCS(=O)(=O)c1ccc(C(Oc2ccc(C#N)cc2)C(=O)Nc2nc3cc(OC)c(OC)cc3o2)cc1 (stereo not shown)", "< 50 nM"],
  ["COc1cc2nc(NC(=O)C(Oc3ccc(OCCN4CCCC4)cc3)c3ccc(C#N)cc3)sc2cc1OC (stereo not shown)", "50 to 100 nM"]
]}

Could you tell me which EC50 is on file for CCS(=O)(=O)c1ccc(C(Oc2ccc(C#N)cc2)C(=O)N(C)c2nc3cc(OC)c(OC)cc3s2)cc1 (stereo not shown) ? 50 to 100 nM

Could you tell me which EC50 is on file for COc1cc2nc(NC(=O)C(Oc3ccc(C#N)cc3)c3cccc(S(=O)(=O)C(C)(C)C)c3)sc2cc1OC (stereo not shown) ? 50 to 100 nM

----------
- TARGET: human apelin receptor (APJ, AGTRL-one, APLNR) (Homo sapiens)
- RUN_DESCRIPTION: cell-based cAMP TR-FRET assay of apelin receptor activation
- RUN_PARAMETERS: CHO cells expressing human APJ, forskolin-stimulated cAMP, 0.5 h incubation, 50% of control (apelin-13, 1 nM) response; read-out: Potency Category (EC50)
Overview of reported EC50 across a group of compounds:

{"columns": ["COMPOUND", "EC50"],
 "data": [
  ["C#Cc1ccc(OC(C(=O)Nc2nc3cc(OC)c(OC)cc3s2)c2ccc(S(=O)(=O)CC)cc2)cc1 (stereo not drawn)", "100 to 200 nM"],
  ["COc1cc2nc(NC(=O)C(Oc3ccc(C#N)cc3)c3ccc(S(=O)(=O)N(C)C)cc3)sc2cc1OC (stereo not drawn)", "< 50 nM"],
  ["CCS(=O)(=O)c1ccc(CC(=O)Nc2nc3ccc(N4CCN(C)CC4)cc3s2)cc1", "> 500 nM"],
  ["COc1ccc(S(=O)(=O)c2cccc(C(Oc3ccc(C#N)cc3)C(=O)Nc3nc4cc(OC)c(OC)cc4s3)c2)cc1 (stereo not drawn)", "> 500 nM"],
  ["CCS(=O)(=O)c1ccc(C(Oc2ccc(C#N)cc2)C(=O)Nc2nc3c4c(ccc3s2)OCCO4)cc1 (stereo not drawn)", "> 500 nM"],
  ["CCS(=O)(=O)c1ccc(C(OCC2CCOCC2)C(=O)Nc2nc3cc(OC)c(OC)cc3s2)cc1 (stereo not drawn)", "> 500 nM"],
  ["COc1cc2nc(NC(=O)C(Oc3ccc(C(=O)NCCN4CCCCC4)cc3)c3ccc(C#N)cc3)sc2cc1OC (stereo not drawn)", "< 50 nM"],
  ["CCS(=O)(=O)c1ccc(C(C(=O)Nc2nc3cc(OC)c(OC)cc3s2)C(C)C)cc1 (stereo not drawn)", "200 to 500 nM"],
  ["CCS(=O)(=O)c1ccc(C(Oc2ccc(C#N)cc2)C(=O)Nc2nc3cc(OC)c(OC)cc3n2C)cc1 (stereo not drawn)", "> 500 nM"],
  ["CCS(=O)(=O)c1ccc(C(CCOC)C(=O)Nc2nc3cc(OC)c(OC)cc3s2)cc1 (stereo not drawn)", "> 500 nM"]
]}

Could you tell me which EC50 is on file for CCOc1cc2nc(NC(=O)C(Oc3ccc(C#N)cc3)c3ccc(S(=O)(=O)CC)cc3)sc2cc1OC (stereo not drawn) ? < 50 nM

Could you tell me which EC50 is on file for COc1ccc(S(=O)(=O)c2ccc(C(Oc3ccc(C#N)cc3)C(=O)Nc3nc4cc(OC)c(OC)cc4s3)cc2)cc1 (stereo not drawn) ? 100 to 200 nM

Could you tell me which EC50 is on file for `CCS(=O)(=O)c1ccc(CC(=O)Nc2nc3cc(N(C)C)ccc3s2)cc1` ? > 500 nM

Could you tell me which EC50 is on file for CCS(=O)(=O)c1ccc(C(Nc2cccc(OC)c2)C(=O)Nc2nc3cc(OC)c(OC)cc3s2)cc1 (stereo not drawn) ? > 500 nM
